# measured-target: T1, TNF-beta (human, UniProt P01374 35-205)
# T1 construct: also called TNFβ; Tumour Necrosis Factor-beta
# T1 sequence (looked up): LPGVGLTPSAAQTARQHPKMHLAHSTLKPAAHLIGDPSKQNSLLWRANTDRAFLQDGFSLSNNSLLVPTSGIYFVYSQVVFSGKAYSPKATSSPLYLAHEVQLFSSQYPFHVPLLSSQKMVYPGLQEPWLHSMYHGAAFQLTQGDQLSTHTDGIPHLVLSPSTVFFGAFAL
# method-notes: phage ELISA
endpoint-name: binding result

INSERT INTO results (binder, observed_value) VALUES
  ('I031G10 (scFv) scFv: QVQLVQSGAEVKKPGSSVKVSCRVSGGSFTDDSINWLRQAPGQGLEWVGGTIPLANRANYAQKFRDRVTITADELTATVFLELTSLRSDDTALYYCARSSPPKWYDALTGDSSYHSAMDVWGRGTLVTVSSGGGGSGGGGSGGGGSAQSVVTQPPSVSAAPGQKVTISCSGSTSNIGRNYVSWYQQLPGTATKLLIYDNNKRPSGIPDRFSGSKSGTSATLGITGLQTGDEADYYCGTWDSSLRIYVFGTGTKVTVLG', 'no binding'),
  ('I061E07 (scFv) scFv: QVQLQQSGAEVKKTGASVKVSCKASGYIFADYYVHWVRQAAGQGLEWMGWINPNTGSTKYAQKFQDRVTMTRDTSIKTVYMELRRLRSDDTALYYCARATYDPLTGYSFDGFDIWGKGTMVTVSSGGGGSGGGGSGGGGSQSVLTQPPSASGTPGQRVTISCSGSSSNIGSNTVNWYQRLPGAAPQLLIYNNDQRPSGIPDRFSGSKSGTSGSLVISGLQSEDEADYYCASWDDSLNGRVFGGGTKLTVLG', 'no binding'),
  ('I078D08 (scFv) scFv: QVNLRESGGGLVQPGGSLRLSCAASGFTFSSYWMSWVRQAPGKGLEWVANIKQDGSEKYYVDSVKGRFTISRDNSKNTLYLQMNSLRAEDTAVYYCARDAQSYYDILTGYQSYAFDIWGQGTTVTVSSGGGGSGGGGSGGGGSSELTQDPAVSVALGQTVRITCQGDSLRSYYTNWFQQKPGQAPLLVVYAKNKRPSGIPDRFSGSSSGNTASLTITGAQAEDEADYYCHSRDSSGNHVLFGGGTKLTVLG', 'no binding');
